- measured-target: CDK5 (Homo sapiens (Human), UniProt Q00535)
- Sequence (Q00535 whole entry, species assumed): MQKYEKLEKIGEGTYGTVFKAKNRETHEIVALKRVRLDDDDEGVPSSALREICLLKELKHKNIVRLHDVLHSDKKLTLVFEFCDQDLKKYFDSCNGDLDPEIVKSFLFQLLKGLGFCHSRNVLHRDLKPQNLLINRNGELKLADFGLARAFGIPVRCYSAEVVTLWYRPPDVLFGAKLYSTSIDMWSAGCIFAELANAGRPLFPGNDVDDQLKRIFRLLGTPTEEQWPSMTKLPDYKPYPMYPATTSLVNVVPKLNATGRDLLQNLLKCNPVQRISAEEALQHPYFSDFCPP
- Sequence (Q15078 99-307 partner, species assumed): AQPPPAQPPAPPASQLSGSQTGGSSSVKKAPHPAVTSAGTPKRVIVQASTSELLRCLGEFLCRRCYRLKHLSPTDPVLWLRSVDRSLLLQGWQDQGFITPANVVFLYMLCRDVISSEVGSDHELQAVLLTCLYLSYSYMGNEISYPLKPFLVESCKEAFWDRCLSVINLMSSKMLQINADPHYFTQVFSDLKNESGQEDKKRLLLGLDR

| compound | measured-target | IC50 / µM |
| --- | --- | --- |
| COc1ccc2cc3c(nc2c1)C1=C([Si](C)(C)C)C(=O)CC1CC3O (stereo not drawn) | CDK5 (Homo sapiens (Human), UniProt Q00535) | 4.8 |

###

melting point listing for selected compounds.
measurement-name: melting point

| compound | value |
| --- | --- |
| C[Si](C)(C)C1=C2c3nc4ccccc4cc3C(O)CC2CC1=O (racemic) | 167 to 168 °C |
| COc1ccc2cc3c(nc2c1)C1=C([Si](C)(C)C)C(=O)CC1CC3O (stereo not shown) | 187 °C |
| COc1cc2cc3c(nc2cc1OC)C1=C([Si](C)(C)C)C(=O)CC1CC3O (stereo not shown) | 221 to 222 °C |
| COc1ccc2nc3c(cc2c1)C(O)CC1CC(=O)C([Si](C)(C)C)=C31 (stereo not shown) | 186 °C |

###

This listing pairs compounds with measured IC50.
- measured-target: CDK5 (Homo sapiens (Human))

| compound | output-unit | IC50 |
| --- | --- | --- |
| COc1cc2cc3c(nc2cc1OC)C1=C([Si](C)(C)C)C(=O)CC1CC3O (stereo not shown) | µM | 3.3 |
| C[Si](C)(C)C1=C2c3nc4ccccc4cc3C(Cl)CC2CC1=O (stereo not shown) | µM | 63 |
| COc1ccc2nc3c(cc2c1)C(O)CC1CC(=O)C([Si](C)(C)C)=C31 (stereo not shown) | µM | 4 |

###

- measured-target: CDK1
- measurement-protocol: Enzyme inhibition test, radiolabeled ATP, CDK1
- measurement-context: dose-response curves
# IC50 per record follows
measurement-name: IC50

| compound | measured-target | value |
| --- | --- | --- |
| COc1ccc2cc3c(nc2c1)C1=C([Si](C)(C)C)C(=O)CC1CC3O (stereo not shown) | CDK1 | 1.6 µM |
| C[Si](C)(C)C1=C2c3nc4ccccc4cc3C(Cl)CC2CC1=O (stereo not shown) | CDK1 | 3.6 µM |
| COc1ccc2nc3c(cc2c1)C(O)CC1CC(=O)C([Si](C)(C)C)=C31 (stereo not shown) | CDK1 | 1.7 µM |
| COc1cc2cc3c(nc2cc1OC)C1=C([Si](C)(C)C)C(=O)CC1CC3O (stereo not shown) | CDK1 | 1.7 µM |
